Each entry below lists one item and its recorded pIC50 value.
- TESTED ON: human Src enzyme (Homo sapiens, UniProt P12931)
- Construct: purchased Carna Biosciences, Inc. 08-173
- Sequence (P12931 whole entry): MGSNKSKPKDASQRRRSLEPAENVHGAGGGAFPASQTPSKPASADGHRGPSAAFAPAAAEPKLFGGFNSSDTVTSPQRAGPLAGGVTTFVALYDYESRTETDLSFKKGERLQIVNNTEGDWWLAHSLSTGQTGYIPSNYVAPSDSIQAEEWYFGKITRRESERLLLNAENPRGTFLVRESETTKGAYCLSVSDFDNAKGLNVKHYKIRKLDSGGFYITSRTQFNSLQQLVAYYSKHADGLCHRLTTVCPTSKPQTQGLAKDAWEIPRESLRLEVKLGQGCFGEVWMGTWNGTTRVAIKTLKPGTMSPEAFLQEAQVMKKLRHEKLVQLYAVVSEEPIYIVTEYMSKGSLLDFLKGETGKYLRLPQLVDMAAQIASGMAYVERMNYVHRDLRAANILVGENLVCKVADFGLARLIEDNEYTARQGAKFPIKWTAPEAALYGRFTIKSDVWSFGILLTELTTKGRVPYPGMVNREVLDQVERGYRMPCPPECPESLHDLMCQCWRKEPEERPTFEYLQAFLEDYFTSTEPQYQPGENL
- ASSAY INFO: Src enzyme inhibitory activity (time-resolved fluorometry, biotinylated peptide phosphorylation)
- Assay type: biochemical
- MEASUREMENT SETUP: biotinylated peptide phosphorylation, read-out: SRC_IC50
pIC50: −log10 of the molar value.
RESULT TYPE: pIC50

COMPOUND: Cc1cc(Oc2ccccc2F)ncc1-n1ncc(C(=O)c2cc3cc(F)c(NS(=O)(=O)C4CC4)cc3[nH]2)c1N [Example 4-2-043]
TESTED ON: human Src enzyme (Homo sapiens, UniProt P12931)
MEASURED VALUE: 7.06
//
COMPOUND: Cc1cc2cc(C(=O)c3cnn(-c4cnc(Oc5ccccc5F)cc4C)c3N)[nH]c2cc1NS(=O)(=O)c1cnc(N(C)C)nc1 [Example 5-1-577]
TESTED ON: human Src enzyme (Homo sapiens, UniProt P12931)
MEASURED VALUE: 5.96
//
COMPOUND: Cc1cc(Oc2cccc(F)c2F)cc(F)c1-n1ncc(C(=O)c2cc3cc(F)c(N)cc3[nH]2)c1N [Example 4-3-001]
TESTED ON: human Src enzyme (Homo sapiens, UniProt P12931)
MEASURED VALUE: 7.04
//
COMPOUND: Cc1cc2cc(C(=O)c3cnn(-c4cnc(Oc5c(F)cccc5F)cc4C)c3N)[nH]c2cc1NS(C)(=O)=O [Example 4-1-001]
TESTED ON: human Src enzyme (Homo sapiens, UniProt P12931)
MEASURED VALUE: 7.35
//
COMPOUND: Cc1cc(Oc2ccccc2F)ccc1-n1ncc(C(=O)c2cc3cc(F)c(NS(=O)(=O)NC(C)C)cc3[nH]2)c1N [Example 4-5-004]
TESTED ON: human Src enzyme (Homo sapiens, UniProt P12931)
MEASURED VALUE: 7.19
//
COMPOUND: Cc1cc(-n2ncc(C(=O)c3cc4cc(C)c(N5C(=O)NC6(COC6)C5=O)cc4[nH]3)c2N)ccc1Oc1ccccc1F [Example 5-1-475]
TESTED ON: human Src enzyme (Homo sapiens, UniProt P12931)
MEASURED VALUE: 5.85
//
COMPOUND: Cc1cc2cc(C(=O)c3cnn(-c4cnc(Oc5ccccc5F)cc4C)c3N)[nH]c2cc1NS(=O)(=O)c1cc(F)ccn1 [Example 5-1-505]
TESTED ON: human Src enzyme (Homo sapiens, UniProt P12931)
MEASURED VALUE: 6.33

----------
- TESTED ON: human Yes1 enzyme (Homo sapiens, UniProt P07947)
- Construct: made in house
- Sequence (P07947 whole entry): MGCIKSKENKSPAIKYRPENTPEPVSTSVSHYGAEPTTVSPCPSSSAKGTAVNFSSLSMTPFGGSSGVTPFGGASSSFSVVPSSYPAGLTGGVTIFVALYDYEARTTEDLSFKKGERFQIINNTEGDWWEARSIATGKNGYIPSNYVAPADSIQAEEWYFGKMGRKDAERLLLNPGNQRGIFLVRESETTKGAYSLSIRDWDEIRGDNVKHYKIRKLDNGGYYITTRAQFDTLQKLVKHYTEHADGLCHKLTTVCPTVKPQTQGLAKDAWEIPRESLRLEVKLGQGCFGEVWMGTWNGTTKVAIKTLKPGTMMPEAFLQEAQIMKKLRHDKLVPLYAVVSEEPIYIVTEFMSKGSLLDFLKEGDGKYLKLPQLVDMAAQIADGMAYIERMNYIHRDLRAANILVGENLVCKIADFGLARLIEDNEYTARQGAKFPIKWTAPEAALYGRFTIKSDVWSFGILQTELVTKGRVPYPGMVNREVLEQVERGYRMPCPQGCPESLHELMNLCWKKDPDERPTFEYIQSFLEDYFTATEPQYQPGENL
- ASSAY INFO: Yes1 enzyme inhibitory activity (time-resolved fluorometry, biotinylated peptide phosphorylation)
- Format: biochemical
- MEASUREMENT SETUP: biotinylated peptide phosphorylation, read-out: YES_IC50
pIC50: −log10 of the molar value.
RESULT TYPE: pIC50

SMILES DATA: Cc1cc2cc(C(=O)c3cnn(-c4ccc(Oc5ccccc5F)cc4C)c3N)[nH]c2cc1N1C(=O)NC2(CCCCC2)C1=O
RESULT TYPE: pIC50
MEASURED VALUE: 8.51
//
SMILES DATA: COc1cc2cc(C(=O)c3cnn(-c4c(C)cc(Oc5ccccc5)cc4F)c3N)[nH]c2cc1NS(C)(=O)=O
RESULT TYPE: pIC50
MEASURED VALUE: 8.96
//
SMILES DATA: Cc1cc(Oc2ccccc2F)ncc1-n1ncc(C(=O)c2cc3cc(OC(F)F)c(N4CCOC4=O)cc3[nH]2)c1N
RESULT TYPE: pIC50
MEASURED VALUE: 9.14
//
SMILES DATA: COc1ccnc(S(=O)(=O)Nc2cc3[nH]c(C(=O)c4cnn(-c5cnc(Oc6ccccc6F)cc5C)c4N)cc3cc2F)c1
RESULT TYPE: pIC50
MEASURED VALUE: 8.48
//
SMILES DATA: Cc1cc(Oc2cccc(F)c2)ncc1-n1ncc(C(=O)c2cc3cc(F)c(NS(=O)(=O)C4CC4)cc3[nH]2)c1N
RESULT TYPE: pIC50
MEASURED VALUE: 7.92
//
SMILES DATA: COc1cc2cc(C(=O)c3cnn(-c4cnc(Oc5ccccc5F)cc4C)c3N)[nH]c2cc1NC(=O)N1CCOCC1
RESULT TYPE: pIC50
MEASURED VALUE: 8.49
//
SMILES DATA: Cc1cc(Oc2cccc(F)c2F)cc(F)c1-n1ncc(C(=O)c2cc3cc(NS(C)(=O)=O)c(Cl)cc3[nH]2)c1N
RESULT TYPE: pIC50
MEASURED VALUE: 8.70
//
SMILES DATA: COc1cccc(S(=O)(=O)Nc2cc3[nH]c(C(=O)c4cnn(-c5cnc(Oc6ccccc6F)cc5C)c4N)cc3cc2C)n1
RESULT TYPE: pIC50
MEASURED VALUE: 8.17
//
SMILES DATA: Cc1cc(Oc2c(F)cccc2F)ncc1-n1ncc(C(=O)c2cc3cc(OC(F)F)c(N4C(=O)NC(C)(C)C4=O)cc3[nH]2)c1N
RESULT TYPE: pIC50
MEASURED VALUE: 8.82
//
SMILES DATA: Cc1cc(Oc2cc(F)ccc2F)cc(F)c1-n1ncc(C(=O)c2cc3cc(F)c(NS(=O)(=O)C4CC4)cc3[nH]2)c1N
RESULT TYPE: pIC50
MEASURED VALUE: 8.23
//
SMILES DATA: Cc1cc(Oc2cccc(Cl)c2)cc(F)c1-n1ncc(C(=O)c2cc3cc(F)c(NS(=O)(=O)C4CC4)cc3[nH]2)c1N
RESULT TYPE: pIC50
MEASURED VALUE: 7.85
//
SMILES DATA: Cc1cc(Oc2cc(F)ccc2F)cc(F)c1-n1ncc(C(=O)c2cc3cc(NS(C)(=O)=O)c(F)cc3[nH]2)c1N
RESULT TYPE: pIC50
MEASURED VALUE: 9.13
//
SMILES DATA: COc1cc2cc(C(=O)c3cnn(-c4cnc(Oc5ccccc5F)cc4C)c3N)[nH]c2cc1NS(=O)(=O)CCCF
RESULT TYPE: pIC50
MEASURED VALUE: 8.62

----------
Each entry below lists one item and its recorded pIC50 value.
- TESTED ON: human Yes1 enzyme (Homo sapiens, UniProt P07947)
- Construct: made in house
- ASSAY INFO: Yes1 enzyme inhibitory activity (time-resolved fluorometry, biotinylated peptide phosphorylation)
- Type: biochemical
- MEASUREMENT SETUP: read-out: YES_IC50
pIC50: −log10 of the molar value.

COMPOUND: CC(C)N1CCC(c2cc3[nH]c(C(=O)c4cnn(-c5ccc(Oc6cccc(Cl)c6)cc5F)c4N)cc3cc2F)CC1 [Example 5-1-010]
pIC50: 8.60

COMPOUND: Cc1cc2cc(C(=O)c3cnn(-c4cnc(Oc5c(F)cccc5F)cc4C)c3N)[nH]c2cc1NS(=O)(=O)N1C2CCC1COC2 [Example 5-1-291]
pIC50: 8.00

COMPOUND: Cc1cc(-n2ncc(C(=O)c3cc4cc(F)c(NS(C)(=O)=O)cc4[nH]3)c2N)cnc1Oc1cccc(Cl)c1 [Example 5-1-042]
pIC50: 6.57

COMPOUND: Cc1cc(Oc2c(F)cccc2F)ncc1-n1ncc(C(=O)c2cc3cc(OC4CCN(C5CCCC5)CC4)c(Br)cc3[nH]2)c1N [Example 5-1-223]
pIC50: 8.82

COMPOUND: Cc1cc(Oc2c(F)cccc2F)ncc1-n1ncc(C(=O)c2cc3cc(OCC(F)F)c(C4CCN(C(=O)OC(C)(C)C)CC4)cc3[nH]2)c1N [Example 5-1-069]
pIC50: 7.74

COMPOUND: Cc1cc(Oc2c(F)cccc2F)ncc1-n1ncc(C(=O)c2cc3cc(OC4CCN(C5CC5)CC4)c(Br)cc3[nH]2)c1N [Example 5-1-224]
pIC50: 9.24

----------
- TESTED ON: human Lck enzyme (Homo sapiens, UniProt P06239)
- Construct: purchased Carna Biosciences, Inc. 08-170
- Sequence (P06239 whole entry): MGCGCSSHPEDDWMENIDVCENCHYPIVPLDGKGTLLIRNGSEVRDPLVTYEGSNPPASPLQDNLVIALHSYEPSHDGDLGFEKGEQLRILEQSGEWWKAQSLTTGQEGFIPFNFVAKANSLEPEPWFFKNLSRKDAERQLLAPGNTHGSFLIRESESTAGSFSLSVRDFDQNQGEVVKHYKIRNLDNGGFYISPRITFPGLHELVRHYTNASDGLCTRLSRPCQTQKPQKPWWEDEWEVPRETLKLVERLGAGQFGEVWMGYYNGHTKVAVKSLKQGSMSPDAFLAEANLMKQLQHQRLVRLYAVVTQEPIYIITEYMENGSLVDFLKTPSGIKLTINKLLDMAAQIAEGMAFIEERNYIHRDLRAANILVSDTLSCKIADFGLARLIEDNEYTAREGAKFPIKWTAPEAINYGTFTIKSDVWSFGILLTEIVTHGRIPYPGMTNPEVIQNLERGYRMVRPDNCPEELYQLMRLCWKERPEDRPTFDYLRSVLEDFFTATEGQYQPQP
- ASSAY INFO: Lck enzyme inhibitory activity (time-resolved fluorometry, biotinylated peptide phosphorylation)
- Format: biochemical
- MEASUREMENT SETUP: read-out: LCK_IC50
- Protocol: 3. Lck Enzyme Inhibitory Activity Lck inhibitory activity was determined based on activity of inhibiting phosphorylation reaction of a biotinylated peptide (EGPWLEEEEEAYGWMDF) using a human Lck enzyme (manufactured by Carna Biosciences, Inc., cat 08-170). The phosphorylated biotinylated peptide was detected by time-resolved fluorometry using an anti-phosphorylated tyrosine antibody conjugated to europium cryptate, and streptavidin conjugated to XL665, an allophycocyanin derivative. […]
The threshold is 50 nM. Values of IC50 beneath it are tagged satisfied; values meeting or exceeding it are tagged not satisfied.

SMILES DATA: Cc1cc(Oc2c(F)cccc2F)ncc1-n1ncc(C(=O)c2cc3cc(F)c(N4C(=O)NC5(CCCC5)C4=O)cc3[nH]2)c1N
CLASS: satisfied
--
SMILES DATA: Cc1cc(Oc2ccccc2F)ccc1-n1ncc(C(=O)c2cc3cc(O)c(NS(C)(=O)=O)cc3[nH]2)c1N
CLASS: satisfied
--
SMILES DATA: Cc1cc(-n2ncc(C(=O)c3cc4cc(OC5CCN(C(C)C)CC5)c(Br)cc4[nH]3)c2N)c(F)cc1Oc1ccccc1F
CLASS: not satisfied
--
SMILES DATA: Cc1cc2cc(C(=O)c3cnn(-c4c(C)cc(Oc5c(F)cccc5Cl)cc4F)c3N)[nH]c2cc1NS(C)(=O)=O
CLASS: not satisfied
--
SMILES DATA: Cc1cc(Oc2ccccc2F)ccc1-n1ncc(C(=O)c2cc3cc(OC(F)F)c(N4CC(C)(C)NS4(=O)=O)cc3[nH]2)c1N
CLASS: satisfied
--
SMILES DATA: Nc1c(C(=O)c2cc3cc(F)c(NS(=O)(=O)CCCF)cc3[nH]2)cnn1-c1c(F)cc(Oc2cccc(F)c2F)cc1F
CLASS: not satisfied
